test system: MCF7 breast; test: NCI tumour cell line growth inhibition, 48 h
property-measured: TGI

1. O=C1CCCC2=C1C(c1ccc3c(c1)OCO3)Nc1ccc3ccccc3c12 (stereo not drawn)
> 100 µM
2. COc1ccc(C2=CC(c3cc(OC)c(OC)c(OC)c3)NC(=O)N2)cc1OC (stereo not drawn)
14.8 µM
3. Cc1ccc2c[c]1[Hg][CH2]COS2(=O)=O
39.4 µM

Problem: Recorded TGI for C=CCN(c1cc(OCc2ccccc2)c(NC(C)=O)cc1[N+](=O)[O-])S(C)(=O)=O , please?
Result: > 100 µM

Problem: Recorded TGI for C=C(C)C(=O)OC1CC2(C)OC2CC(OC(C)=O)/C(C)=C/C2OC(=O)C(=C)C21 (stereo not drawn) , please?
Result: 12.2 µM

Problem: Recorded TGI for C=C1C(=O)O[C@H]2C/C(C)=C/CC/C(C)=C/CC[C@@](C)(O)[C@@H](I)C[C@@H]12 , please?
Result: 25.1 µM
